# credit: patent US20200361992A1

Molecular target: T1, human ferroportin (SLC40A1) fused in frame with the GFP protein, stably expressed in HEK293 cells (human, UniProt Q9NP59 1-571)
T1 sequence (looked up): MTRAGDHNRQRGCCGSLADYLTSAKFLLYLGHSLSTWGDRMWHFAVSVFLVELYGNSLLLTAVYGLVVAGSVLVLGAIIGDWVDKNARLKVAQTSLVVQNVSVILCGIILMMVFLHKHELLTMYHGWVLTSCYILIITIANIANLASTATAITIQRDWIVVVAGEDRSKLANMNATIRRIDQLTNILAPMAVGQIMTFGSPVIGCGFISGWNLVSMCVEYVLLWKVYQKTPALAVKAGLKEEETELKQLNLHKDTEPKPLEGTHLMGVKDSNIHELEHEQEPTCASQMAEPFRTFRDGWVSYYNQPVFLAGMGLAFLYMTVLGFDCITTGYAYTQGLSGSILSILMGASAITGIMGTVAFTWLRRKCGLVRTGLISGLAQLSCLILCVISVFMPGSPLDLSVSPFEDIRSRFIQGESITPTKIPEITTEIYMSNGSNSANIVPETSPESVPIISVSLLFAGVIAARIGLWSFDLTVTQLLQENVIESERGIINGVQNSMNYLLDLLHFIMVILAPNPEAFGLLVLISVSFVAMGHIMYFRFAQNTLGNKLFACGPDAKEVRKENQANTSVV
Experiment: cell-based or functional assay
Starred links: 1 amine or outer side, 2 acyl side, 3 side chain; linkers in the order of their positions; H or OH if unused. Positions of bridges follow the written chain, without caps; N, C: chain ends. Groups on a side chain read outwards from the residue. *: point of attachment. γGlu = O=C(O)[C@H](CCC(=O)[*:2])N[*:1]; Palmitoyl = CCCCCCCCCCCCCCCC(=O)*; Isovaleryl = CC(C)CC(=O)*
MEASURED_PROPERTY: FPN IC50 (nM)
Report the value in nM with no unit label.

Give reported FPN IC50 value for Isovaleryl-DTHFPCIK([γGlu-Palmitoyl])FEPRC-NH2 (disulfide 6-13; SMILES CCCCCCCCCCCCCCCC(=O)N[C@@H](CCC(=O)NCCCC[C@@H]1NC(=O)[C@H]([C@@H](C)CC)NC(=O)[C@@H](NC(=O)[C@@H]2CCCN2C(=O)[C@H](Cc2ccccc2)NC(=O)[C@H](Cc2c[nH]cn2)NC(=O)[C@@H](NC(=O)[C@H](CC(=O)O)NC(=O)CC(C)C)[C@@H](C)O)CSSC[C@@H](C(N)=O)NC(=O)[C@H](CCCNC(=N)N)NC(=O)[C@@H]2CCCN2C(=O)[C@H](CCC(=O)O)NC(=O)[C@H](Cc2ccccc2)NC1=O)C(=O)O) [Compd ID 204]
14
